# Test system: SF-539 CNS
# test-name: NCI-60 one-dose screen, 48 h (100 = growth as untreated, 0 = no growth, -100 = all killed)
# condition-label: 10 µM unless noted
About 83,000 compounds went through this panel and 20% of them were active in at least one assay; those are over-represented in the sample as a whole.
experimental-readout: growth (%)
Express the result in % but write the number alone.

compound=CNC(=O)Oc1cccc(N(C)C)c1 experimental_readout=growth recorded_measurement=100
compound=CN(C)P1(N(C)C)=NP(N(C)C)(N(C)C)=NP(N(C)C)(N(C)C)=N1 experimental_readout=growth recorded_measurement=104
compound="N#CC1c2ccccc2C=CN1C(=O)c1ccc(N(CCCl)CCCl)cc1 (configuration not stated)" experimental_readout=growth recorded_measurement=101
compound=C=CCc1ccc(OC(=O)Cc2ccccc2)c(OC)c1 experimental_readout=growth recorded_measurement=97.8

Kindly note the recorded growth for COc1ccc(/C=C(/C(=O)N2CCCC2)c2cc(OC)c(OC)c(OC)c2)cc1N , which is 3.13

Sure, the documented growth for CCOC(=O)Nc1cc(Cl)c([N+](=O)[O-])c(NC(=O)OCC)n1 is 107

CC(=O)O[C@H]1CCC2(C)C(=CCC3C2CCC2(C)/C(=N/OC(=O)c4ccc(N(CCCl)CCCl)cc4)CCC32)C1 (some centres not stated) has a reported growth of 51.5

Lookup result for COc1cc(N(CCCl)CCCl)ccc1C=Nc1ccccc1C(=O)O ; measured growth: 102

What the record says about O=C1NC(=O)C(Cc2ccccc2)(Cc2ccccc2)C(=O)N1 : growth is 110

get_value(item= C=CC(O)CN1CC1CC (configuration not stated) , readout=growth) returns 98

Lab note: measured growth of Nc1cccc2c1Oc1ccccc1O2 was 112

Value of measured growth for the entry CCC(CO)NC1CCCCC1 (configuration not stated) : 17.7

growth measured on CC1=C(SCCC(=O)OCC(=O)NCCC[Te]c2ccccc2)C(=O)c2ccccc2C1=O = -60.3

growth recorded for this compound, NC(=O)OCC(CO)(c1ccccc1)c1ccccc1 , is 96.8

# growth (compound: O=[N+]([O-])c1ccc(F)c([N+](=O)[O-])c1F ) is 105

growth for CC(=O)[O][Hg][c]1nc2c(c(=O)n(C)c(=O)n2C)n1C is 104

Note to self: growth recorded for CC1(C)N=C(N)N=C(N)N1c1ccc(OCCCCOc2ccc(S(=O)(=O)F)cc2)c(Cl)c1 was 12.2

----------
# System: MDA-MB-231 breast
# test-name: NCI-60 one-dose screen, 48 h (100 = growth as untreated, 0 = no growth, -100 = all killed)
# condition-label: 10 µM unless noted
The panel holds about 83,000 compounds, 20% with a hit somewhere; the sample as a whole holds those more often.
experimental-readout: growth (%)
Express your answer in %, writing the number without its unit.

Field growth (MDA-MB-231 breast), entry CC[CH2][Pb]([CH2]CC)([CH2]CC)[O]C(=O)C(F)(F)F : -50.3

// growth (MDA-MB-231 breast) for O=C(C(=O)N1CCCC1)c1cn(CCCCCn2cc(C(=O)C(=O)N3CCCC3)c3ccccc32)c2ccccc12 = 77.2

The reported MDA-MB-231 breast growth of C[CH2][Pb]([CH2]C)([CH2]C)[O]C(=O)COC is 8.7

GET /values?item= CCN1CC2(CN(CC)C1=S)C(=O)NC(=O)NC2=O &system= MDA-MB-231 breast returns growth: 110

Case CC(C)(C)N(Cc1ccccc1)N=O , MDA-MB-231 breast, growth recorded as 91.9

Entry Nc1ncnc2c1c(C(=O)NO)cn2C1OC(CO)C(O)C1O (stereo unspecified) , tested on MDA-MB-231 breast, has a reported growth of -6.16

----------
# System: HL-60(TB) leukemia
# test-name: NCI-60 one-dose screen, 48 h
# condition-label: 10 µM unless noted
# Protocol: Growth inhibition of the HL-60(TB) human tumor cell line is measured as a screen for anti-cancer activity. Cells are grown in 96 well plates and exposed to the test compound for 48 hours. Compounds are tested at a single concentration, which is 10^-5 M for most compounds. The reported endpoint is percent growth (GI% or GIPRCNT), where numbers from 0 - 100% represent growth inhibition, and numbers from -100% - 0 represent cell death. For example, a value of 40 represents 60% growth inhibition. […]
About 83,000 compounds went through this panel and 20% of them were active in at least one assay; those are over-represented in the sample as a whole. Activity calls are given as the source filed them. How the source made its calls: active means growth percent below 10; inactive means the rest.
Write down one outcome, taken from active, inactive

Worked examples, 6 compounds total:
compound=Cc1cc(C)n(-c2nc(-c3cccs3)c(C#N)c(=O)[nH]2)n1 classification=inactive
compound="NC(=O)C1CCCN(Cc2c[nH]c3ccccc23)C1 (stereo unspecified)" classification=inactive
compound=COc1ccc(/C=C/c2ccc3ccccc3n2)c(OC)c1 classification=inactive
compound="COC(=O)[C@]12CC[C@@H](C)[C@H](C)[C@@H]1C1=CC[C@@H]3[C@@]4(C)C[C@@H](O)OC[C@](C)(C=O)C4C(=O)C[C@@]3(C)[C@]1(C)CC2 (stereo partly specified)" classification=active
compound=Cc1ccc(S(=O)(=O)NCCN2c3nc4ccccc4cc3Sc3cc4ccccc4nc32)cc1 classification=inactive
compound=CSc1nc2ncncc2[nH]1 classification=inactive

Ask: Hi team, can someone confirm the assay call for COc1cc2ccc(C(C)=O)cc2cc1OC ?
Result: inactive

Ask: Record lookup: outcome of this test for O=C(c1ccc(F)c(F)c1Nc1ccc(I)cc1F)N1CC(O)([C@@H]2CCCCN2)C1 ?
Result: active

Ask: Give the logged outcome of this assay for the following compound: Cc1c2c(cc[n+]1Cc1ccccc1)c1ccc(OCC3CCCCC3)cc1n2CC1CCCCC1
Result: active

Ask: What did this assay record as the result for COc1ccc(C)cc1OC ?
Result: inactive

Ask: Call for entry CC1(C)N=C(N)N=C(N)N1c1ccc(CCCCc2ccccc2)c(Cl)c1 :
Result: active

Ask: Query: recorded result category for Cc1ccc(Sc2ccccc2N)cc1 in this test
Result: inactive

Ask: Outcome logged for N#Cc1c(N2CCOCC2)nc2sc3cc(Cl)ccc3n2c1=N in this assay:
Result: inactive

Ask: For this compound, state the assay outcome: CN(C)c1ncnc2c1cnn2C
Result: inactive

Ask: Any idea what this test logged for COc1cc2c(cc1OC)C(CC1(O)CCCCC1)N(S(=O)(=O)c1ccc(C)cc1)CC2 (stereo unspecified) ?
Result: active

Ask: Could you please tell me the result logged for CCCCCOC(=O)c1c(C)[nH]c(/C=C2\N=C(c3ccc[nH]3)C=C2OC)c1C in this assay?
Result: active

Ask: Just curious, what result did CCc1ccc(NC(=O)N[C@@H](Cc2cc(F)cc(F)c2)C(=O)N[C@@H]2C(=O)N3C[C@H](O)C[C@H]3C(=O)N3CCOC[C@H]3C(=O)N[C@@H](C)C(=O)N3C[C@H](C)C[C@H]3C(=O)O[C@H]2C)cc1 get here?
Result: inactive

Ask: Kindly provide the recorded test outcome for the following compound: CC[C@H](CC[C@@H](C)[C@H]1CC[C@H]2[C@@H]3/C(=C/c4cccnc4)C(=O)C4=CC(=O)CC[C@]4(C)[C@H]3CC[C@]12C)C(C)C
Result: inactive

----------
# Test system: HL-60(TB) leukemia
# test-name: NCI-60 one-dose screen, 48 h
# condition-label: 10 µM unless noted
The panel holds about 83,000 compounds, 20% with a hit somewhere; the sample as a whole holds those more often. The source made the active and inactive calls. How the source made its calls: active means growth percent below 10; inactive means the rest.
Your answer must be one of the following: true for active, false for inactive

molecule=CCN=c1cc2sc3cc(NCC)c(C)cc3nc-2cc1C classification=true

Ask: Outcome? COC1=CC(=O)C(OC)=C(OC)C1=O
Result: false

Ask: Write down the call the test reported for this compound. Item: Cc1ccc2nc(-c3ccc(OCC(=O)N=Nc4c(O)[nH]c5ccccc45)cc3)[nH]c2c1
Result: false

Ask: Which outcome was entered for the compound O=C(O)c1ccc(P(=O)(O)O)c([N+](=O)[O-])c1 in this test?
Result: false

Ask: GET /call?item= C=C(C)[C@@H]1CC[C@]2(COC(=O)c3ccccc3C(=O)O)CC[C@]3(C)[C@H](CC[C@@H]4[C@@]5(C)CC[C@H](OC(=O)c6ccccc6C(=O)O)C(C)(C)[C@@H]5CC[C@]43C)[C@@H]12 returns the recorded outcome of this test.
Result: false

----------
# Test system: HL-60(TB) leukemia
# test-name: NCI-60 one-dose screen, 48 h (100 = growth as untreated, 0 = no growth, -100 = all killed)
# condition-label: 10 µM unless noted
The panel holds about 83,000 compounds, 20% with a hit somewhere; the sample as a whole holds those more often.
experimental-readout: growth (%)
Give the quantity in %, number only.

Check out these entries, answers already filled in.
molecule=CCCCCCNC(=O)Nc1ccc2cc3ccc(NC(=O)NCCCCCC)cc3nc2c1 experimental_readout=growth value_units=% recorded_measurement=-49
molecule=CC(=O)Cc1cc(-c2cc(CC(C)=O)[nH]n2)n[nH]1 experimental_readout=growth value_units=% recorded_measurement=88.1
molecule=CC(=O)c1nn(-c2ccccc2)/c(=N/N=Cc2cn(-c3ccccc3)nc2-c2cc3ccccc3oc2=O)s1 experimental_readout=growth value_units=% recorded_measurement=102

Lookup result for COc1cc(C2NC(c3cc(OC)c(OC)c(OC)c3)C(C#N)(C#N)C2(C#N)C#N)cc(OC)c1OC (stereo not given) ; measured growth: 89.3

Measured growth of CCCCc1ccc(Nc2nnc(SCC(=O)NC(=O)NCC)s2)cc1 : 95.2

So for O=C1/C(=C/c2ccccc2)CCC/C1=C\c1ccccc1 , the logged growth turned out to be 97.8

Reported growth ( Cc1cc2cc3c(=O)[nH]c(=O)cc-3n(CC(O)C(O)C(O)CO)c2cc1C (stereo not given) ) = 102

// growth value for COc1ccc(C(c2cc(OC)c(OC)c(OC)c2)N2CCN(Cc3ccccc3)CC2)cc1 (stereo not given) : 23

So, O=C(Nc1cccc(N=Cc2c(O)ccc3ccccc23)c1)c1ccccc1 ? Its growth was 109

The recorded growth for O=C1/C=C/[C@@H](O)[C@@H]2C[C@@H](O)C[C@H]2/C=C/CCC[C@@H](O)CCO1 is 123
